target: Casein kinase I isoform alpha (Homo sapiens, UniProt P48729); further: in the data inactive means no Kd found up to 30 µM
Sequence (P48729 whole entry, canonical isoform): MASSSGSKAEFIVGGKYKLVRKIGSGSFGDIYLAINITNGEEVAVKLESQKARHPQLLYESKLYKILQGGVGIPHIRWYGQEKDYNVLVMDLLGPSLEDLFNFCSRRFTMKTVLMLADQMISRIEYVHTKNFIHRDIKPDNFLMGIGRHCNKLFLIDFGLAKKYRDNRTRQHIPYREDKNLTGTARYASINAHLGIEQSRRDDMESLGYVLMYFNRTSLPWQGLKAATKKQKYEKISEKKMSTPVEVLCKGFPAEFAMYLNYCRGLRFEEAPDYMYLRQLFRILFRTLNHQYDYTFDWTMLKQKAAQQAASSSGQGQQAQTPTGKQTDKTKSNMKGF
Calls of active or inactive are those of the source.
Mark one answer only. Choices: active, inactive

See these solved cases before continuing.
Cn1cc(-c2[nH]c3cc(NC(=O)[C@H](N)C4CCCCC4)cc4c3c2C=NNC4=O)cn1 ... inactive
O=C(Nc1ccc(OC(F)(F)F)cc1)c1sccc1NCc1ccnc2ccccc12 [OSI-930] ... inactive
Cc1c(NC(=O)OC[C@@H]2COCCN2)cn2ncnc(Nc3ccc4c(cnn4Cc4cccc(F)c4)c3)c12 [AC-480] ... inactive

In the following, a different molecule is considered.
## Task Query: recorded result category for c1cc(OCCN2CCCCC2)cc(-c2n[nH]c3ccc(-c4nc[nH]n4)cc23)c1 [CC-401] in this test
## Result active

----------
target: Mitogen-activated protein kinase 8 (Homo sapiens); further: in the data inactive means no Kd found up to 30 µM
Sequence (P45983 whole entry): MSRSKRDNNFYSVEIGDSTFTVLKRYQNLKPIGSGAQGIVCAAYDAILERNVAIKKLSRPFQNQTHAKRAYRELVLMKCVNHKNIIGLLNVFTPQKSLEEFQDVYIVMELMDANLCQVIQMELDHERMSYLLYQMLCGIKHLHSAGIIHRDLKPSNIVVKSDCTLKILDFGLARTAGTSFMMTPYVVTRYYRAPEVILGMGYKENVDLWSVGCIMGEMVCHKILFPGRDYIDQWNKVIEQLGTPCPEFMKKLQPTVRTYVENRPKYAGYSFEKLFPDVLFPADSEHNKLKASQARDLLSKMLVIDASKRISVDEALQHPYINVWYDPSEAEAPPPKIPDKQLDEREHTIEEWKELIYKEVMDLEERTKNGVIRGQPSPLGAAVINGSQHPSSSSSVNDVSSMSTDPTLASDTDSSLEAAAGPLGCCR
Activity calls are given as the source filed them.
In this exercise, the only acceptable responses are active, inactive

COc1cc(Nc2ncc(F)c(Nc3ccc4c(n3)N(COP(=O)(O)O)C(=O)C(C)(C)O4)n2)cc(OC)c1OC ... active
CC(C)(O)CC(=O)NCCn1ccc2ncnc(Nc3ccc(Oc4cccc(C(F)(F)F)c4)c(Cl)c3)c21 ... inactive

## Task How was `O=C(NC[C@H](O)CO)c1ccncc1Nc1ccc(I)cc1F` classified in this test?
## Result inactive

## Task Please let me know the test result on file for `O=C(NOC[C@H](O)CO)c1ccc(F)c(F)c1Nc1ccc(I)cc1F` .
## Result inactive

----------
The compounds below have reported Kd for Aurora kinase B (Homo sapiens, UniProt Q96GD4).
Active and inactive are the calls of the source.

Reference set (5 entries):
CC(C)CC(=O)Nc1[nH]nc2c1CN(C(=O)C1CCN(C)CC1)C2(C)C ... > 30 µM (inactive)
CNC(=O)c1ccc(Nc2ncc(C(F)(F)F)c(NCc3nccnc3N(C)S(C)(=O)=O)n2)cc1 ... 1.46 µM (active)
CC1(COc2ccc3c(c2)ncn3-c2ccc3cccc(N4CCC(N)CC4)c3n2)COC1 ... > 30 µM (inactive)
Cc1cc(C(=O)Nc2cc(Oc3ccc4nc(NC(=O)C5CC5)cn4n3)ccc2C)n(C)n1 ... > 30 µM (inactive)
c1cc(OCCN2CCCCC2)cc(-c2n[nH]c3ccc(-c4nc[nH]n4)cc23)c1 ... > 30 µM (inactive)

## Task Name the recorded Kd of `CN(c1ncccc1CNc1nc(Nc2ccc3c(c2)CC(=O)N3)ncc1C(F)(F)F)S(C)(=O)=O` , assay system Aurora kinase B (Homo sapiens, UniProt Q96GD4). Further: in the data inactive means no Kd found up to 30 µM.
## Result 1.04 µM (active)

## Task Specify the recorded Kd for `COc1cc(F)c(F)c(Nc2ccc(I)cc2F)c1NS(=O)(=O)C1(C[C@H](O)CO)CC1` , system: Aurora kinase B (Homo sapiens, UniProt Q96GD4). Further: in the data inactive means no Kd found up to 30 µM.
Sequence (Q96GD4 whole entry): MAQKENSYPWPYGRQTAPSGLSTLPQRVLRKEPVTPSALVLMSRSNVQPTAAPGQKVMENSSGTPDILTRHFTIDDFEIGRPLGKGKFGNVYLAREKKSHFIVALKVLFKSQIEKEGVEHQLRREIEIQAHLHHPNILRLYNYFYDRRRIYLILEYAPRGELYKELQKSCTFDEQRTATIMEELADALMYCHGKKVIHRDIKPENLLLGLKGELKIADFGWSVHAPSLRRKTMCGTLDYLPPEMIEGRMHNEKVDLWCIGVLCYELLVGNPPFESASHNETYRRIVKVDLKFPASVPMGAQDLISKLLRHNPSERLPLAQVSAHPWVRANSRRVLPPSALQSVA
## Result > 30 µM (inactive)

## Task Enter measured Kd, system Aurora kinase B (Homo sapiens, UniProt Q96GD4), for the compound shown: `COc1cccc2cc(-c3nc([C@H]4CC[C@H](C(=O)O)CC4)n4ncnc(N)c34)[nH]c12`; further: in the data inactive means no Kd found up to 30 µM
## Result > 30 µM (inactive)

## Task Specify the recorded Kd for `O=C(NC[C@H](O)CO)c1ccncc1Nc1ccc(I)cc1F` , system: Aurora kinase B (Homo sapiens, UniProt Q96GD4). Further: in the data inactive means no Kd found up to 30 µM.
## Result > 30 µM (inactive)

## Task Give Kd; test system Aurora kinase B (Homo sapiens, UniProt Q96GD4); compound `CNC(=O)c1cccc(-c2ccc3c(N4CCOC[C@@H]4C)nc(N4CCOC[C@@H]4C)nc3n2)c1`; further: in the data inactive means no Kd found up to 30 µM
## Result > 30 µM (inactive)

## Task Tell me Kd of `CCN1CCN(Cc2ccc(Nc3ncc(F)c(-c4cc(F)c5nc(C)n(C(C)C)c5c4)n3)nc2)CC1` when tested on Aurora kinase B (Homo sapiens, UniProt Q96GD4). Further: in the data inactive means no Kd found up to 30 µM.
## Result > 30 µM (inactive)
